measurement_target: Recombinant human c-KIT kinase (Homo sapiens (Human), UniProt P10721)
Sequence (P10721 26-976): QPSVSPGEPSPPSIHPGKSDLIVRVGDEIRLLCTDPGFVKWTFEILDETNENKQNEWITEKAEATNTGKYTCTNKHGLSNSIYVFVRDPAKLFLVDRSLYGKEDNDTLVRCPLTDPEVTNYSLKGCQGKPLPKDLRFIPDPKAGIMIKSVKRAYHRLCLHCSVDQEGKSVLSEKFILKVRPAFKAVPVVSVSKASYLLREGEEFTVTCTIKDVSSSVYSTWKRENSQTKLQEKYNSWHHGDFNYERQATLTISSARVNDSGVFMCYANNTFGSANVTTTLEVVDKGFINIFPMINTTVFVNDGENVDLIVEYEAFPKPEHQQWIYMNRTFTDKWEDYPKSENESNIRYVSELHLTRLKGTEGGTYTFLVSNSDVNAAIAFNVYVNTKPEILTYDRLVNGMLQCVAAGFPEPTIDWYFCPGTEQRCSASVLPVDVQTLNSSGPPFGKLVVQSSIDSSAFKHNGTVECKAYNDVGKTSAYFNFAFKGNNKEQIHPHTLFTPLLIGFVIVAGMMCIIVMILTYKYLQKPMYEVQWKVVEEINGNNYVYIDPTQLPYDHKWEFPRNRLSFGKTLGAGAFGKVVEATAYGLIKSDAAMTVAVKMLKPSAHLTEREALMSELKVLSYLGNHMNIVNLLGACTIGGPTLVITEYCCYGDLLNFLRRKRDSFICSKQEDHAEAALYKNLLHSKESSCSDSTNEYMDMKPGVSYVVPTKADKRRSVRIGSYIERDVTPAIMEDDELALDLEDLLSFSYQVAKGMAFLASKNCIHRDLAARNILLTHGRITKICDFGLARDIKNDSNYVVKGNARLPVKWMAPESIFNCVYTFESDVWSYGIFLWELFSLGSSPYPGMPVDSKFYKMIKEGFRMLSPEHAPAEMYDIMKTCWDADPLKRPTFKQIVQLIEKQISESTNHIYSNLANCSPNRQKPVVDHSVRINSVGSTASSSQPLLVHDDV
test_protocol: c-KIT kinase chemiluminescence assay (ADP-Glo)
setup_conditions: ATP 50 μM
pIC50: −log10 of the molar value.

{"molecule": "O=C(Nc1cc(-c2noc([C@H]3C[C@@H](OC(F)F)C3)n2)ccc1Cl)c1cnn2ccc(N3CC4(COC4)C3)cc12 [Example 265]", "pIC50": "> 7.00"}
{"molecule": "Cc1ccc(-c2noc([C@H]3C[C@@H]3F)n2)cc1NC(=O)c1cnn2ccc(N3CC(C(C)(C)O)C3)cc12 [Example 179]", "pIC50": "> 7.00"}
{"molecule": "Cc1ncc(-c2noc(C3CN(C(=O)C4(F)CC4)C3)n2)cc1NC(=O)c1cnn2ccc(N3CC4(COC4)C3)cc12 [Example 281-85]", "pIC50": "< 6.00"}
{"molecule": "Cc1ccc(-c2noc(N3CC(O)(C(F)(F)F)C3)n2)cc1NC(=O)c1cnn2ccc(N3CC4(C3)CC(O)(C(F)F)C4)cc12 [Example 281-99]", "pIC50": "> 7.00"}
{"molecule": "Cc1ccc(-c2noc([C@H]3C[C@@H]3F)n2)cc1NC(=O)c1cnn2ccc(NCC3(C(=O)O)COC3)cc12 [Example 241-14]", "pIC50": "6.00 to 7.00"}
{"molecule": "Cc1ccc(-c2noc([C@H]3C[C@@H]3F)n2)cc1NC(=O)c1cnn2ccc(NC(=O)c3ccccc3)cc12 [Example 93]", "pIC50": "6.00 to 7.00"}
{"molecule": "Cc1ccc(-c2ncc(C(C)C)cn2)cc1NC(=O)c1cnn2ccc(N3CC4(COC4)C3)cc12 [Example 345]", "pIC50": "> 7.00"}
{"molecule": "Cc1ccc(-c2cnc(N3CC(O)(C(F)(F)F)C3)nc2)cc1NC(=O)c1cnn2ccc(N3CC4(COC4)C3)cc12 [Example 354]", "pIC50": "> 7.00"}
{"molecule": "Cc1ncc(-c2noc([C@H]3C[C@@H]3C(F)F)n2)cc1NC(=O)c1cnn2ccc(N3CC4(C3)CC(O)(C(F)F)C4)cc12 [Example 281-64]", "pIC50": "> 7.00"}
{"molecule": "Cc1ccc(-c2noc([C@H]3C[C@@H]3F)n2)cc1NC(=O)c1cnn2ccc(N3CC4(C3)CC(O)(C(F)F)C4)cc12 [Example 232]", "pIC50": "> 7.00"}
{"molecule": "Cc1ccc(-c2noc([C@H]3C[C@@H](OC(F)(F)F)C3)n2)cc1NC(=O)c1cnn2ccc(-c3c(C)nc(N)nc3C)cc12 [Example 171-7]", "pIC50": "6.00 to 7.00"}
{"molecule": "Cc1cc(C)c(-c2ccn3ncc(C(=O)Nc4cc(-c5noc([C@H]6C[C@@H](OC(F)(F)F)C6)n5)ccc4C)c3c2)c(C)c1 [Example 171-3]", "pIC50": "< 6.00"}
{"molecule": "Cc1ccc(-c2noc([C@H]3C[C@@H]3F)n2)cc1NC(=O)c1cnn2ccc(-c3c(C)n[nH]c3C)cc12 [Example 161]", "pIC50": "> 7.00"}

* * *

measurement_target: Recombinant human c-KIT kinase (Homo sapiens (Human))
test_protocol: c-KIT kinase chemiluminescence assay (ADP-Glo)
setup_conditions: ATP 50 μM
Description: The c-KIT Kinase Enzyme System (V4498) and ADP-Glo™ Kinase Assay kit (V6930) were purchased from Promega (Madison, WI). DMSO (D2650) was purchased from Sigma-Aldrich (Burlington, MA). […] ADP detection with ADP-Glo™ Kinase Assay: After the kinase reaction incubation, 5 μL of ADP-Glo™ reagent was added to all wells. […] Kinase activity was measured as increase in luminescence at RT in an Envision plate reader equipped with 560 nm filters and operating in endpoint mode. […]
measurement_type: IC50

{"substance_smiles": "Cc1ccc(-c2noc([C@H]3C[C@@H](OC(F)F)C3)n2)cc1NC(=O)c1cnn2ccc(N3CC4(C3)CC(O)(C(F)F)C4)cc12", "result_value": "< 100 nM"}
{"substance_smiles": "Cc1ncc(-c2nnn(C3CNC3)n2)cc1NC(=O)c1cnn2ccc(N3CC4(C3)CC(O)(C(F)F)C4)cc12", "result_value": "> 1000 nM"}
{"substance_smiles": "Cc1ccc(-c2noc([C@H]3C[C@@H]3F)n2)cc1NC(=O)c1cnn2ccc(-c3cnn(CC(C)(C)O)c3)cc12", "result_value": "< 100 nM"}
{"substance_smiles": "Cc1ccc(-c2noc([C@H]3C[C@@H]3F)n2)cc1NC(=O)c1cnn2ccc(-c3ccc(N4CCOCC4)nc3C)cc12", "result_value": "< 100 nM"}
{"substance_smiles": "Cc1ncc(-c2ccn3ncc(C(=O)Nc4cc(-c5noc([C@H]6C[C@@H]6F)n5)ccc4C)c3c2)cn1", "result_value": "< 100 nM"}
{"substance_smiles": "Cc1ccc(-c2noc([C@H]3C[C@@H]3F)n2)cc1NC(=O)c1cnc(-c2ccccc2F)s1", "result_value": "100 to 1000 nM"}
{"substance_smiles": "Cc1ccc(-c2noc([C@H]3C[C@@H]3F)n2)cc1NC(=O)c1cnn2cc(F)c(Br)cc12", "result_value": "100 to 1000 nM"}

// data source = patent US20250059174A1
